# target_system: SARS-CoV-2 wild type spike protein (on reporter virus particles) (SARS-CoV-2, UniProt P0DTC2 14-1273)
# experiment_notes: cell-based or functional assay
PsV Neut Assay IC50 for assorted binders
Output spec: scalar in nM, unitless text.

A-18 (antibody, V domains shown) VH: EVQLLESGGGLVQPGGSLRLSCAASGFTFSRYWMHWVRQAPGKGLVWVSRINSDGSSTTYADSVKGRFTISRDNAKNTLYLQMNSLRAEDTAVYYCARELYYYDSRGAEEGEGWFDPWGQGTLVTVSS VL: QSVLTQPPSVSGAPGQRVTISCTGISSNIGAGYDVHWYQQLPGTAPKLLIYGNSNRPSGVPDRFSASKSGTSAPLAITGLQAEDEADYYCQSSDRSLSGSVFGTGTKLTVL
9.88

Given A-1 (antibody, V domains shown) VH: EVQLVESGGGVVQPGGSLRLSCAASGFAFSTYWMHWVRQAPGKGLVWVSRINGDGSGTNYADSVKGRFTISRDNAKSTLYLQMNSLRTEDTAVYYCTRTAGRGAYDFGRFDPWGQGTLVTVSS VL: DIVLTQTPLSLPVTPGEPASISCRSSQSLLHSNGYNYLDWYLQKAGQSPQLLVFLGSNRASGVPDRFSGSASGTDFTLKISRVEAEDVGVYYCMQALQIPITFGQGTRLEIK , state its recorded PsV Neut Assay IC50.
0.116
